Where do these numbers come from? They come from patent US20260373266A1.

# measured-on: DCAF1 WD40 domain (residues 1077-1390) (Homo sapiens, UniProt Q9Y4B6)
# Construct: DCAF1 WD40 domain (residues 1077-1390)
# Sequence (Q9Y4B6 1077-1390): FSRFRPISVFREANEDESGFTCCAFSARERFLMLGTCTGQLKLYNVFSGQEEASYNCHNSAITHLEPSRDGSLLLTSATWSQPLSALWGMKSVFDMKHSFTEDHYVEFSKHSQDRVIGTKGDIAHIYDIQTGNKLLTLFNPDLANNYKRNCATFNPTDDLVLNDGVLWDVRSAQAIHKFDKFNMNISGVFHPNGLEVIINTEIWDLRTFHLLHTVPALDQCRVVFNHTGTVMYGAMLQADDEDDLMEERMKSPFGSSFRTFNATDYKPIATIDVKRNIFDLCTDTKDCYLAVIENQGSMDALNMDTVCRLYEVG
# assay-explanation: DCAF1 binding assay by SPR (Biacore 8K+), DCAF1-3 KD
# measurement-setup: 25 °C, read-out: DCAF1-3 SPR (KD)
Field: Kd. Provide a value for each of the compounds that follow.

### Prompt Value wanted: Kd (DCAF1 WD40 domain (residues 1077-1390) (Homo sapiens, UniProt Q9Y4B6)) of entry `OCCN(c1nc(N2CCOCC2)c[nH]1)[C@H]1CCCN(c2cccc(F)c2)C1`
### Response > 200 µM

### Prompt Thanks! And `NC(=O)[C@H]1CC[C@@H](Nc2cc(N3CCCCC3)ccn2)CN1c1cccc(F)c1` ?
### Response 10 to 100 µM

### Prompt Thanks! And `NC(=O)C[C@H](NC(=O)c1[nH][nH]c(=O)c1-c1ccccc1F)c1cccc(Cl)c1` ?
### Response > 200 µM

### Prompt Thanks! And `Oc1ccc2nc(N3CCC[C@@H](Nc4cc(N5CCOCC5)ccn4)C3)ccc2c1` ?
### Response 10 to 100 µM

### Prompt Thanks! And `O=c1[nH]cc(C2=CCOCC2)cc1N[C@@H]1CCCN(c2cccc(F)c2)C1` ?
### Response 10 to 100 µM

### Prompt Thanks! And `O=C(C[C@H](NC(=O)c1cn[nH]c1-c1ccccc1F)c1cccc(Cl)c1)NCc1ccccc1` ?
### Response 10 to 100 µM

### Prompt Thanks! And `NC(=O)C[C@H](NC(=O)c1cn[nH]c1[C@@H]1CCCCO1)c1cccc(Cl)c1` ?
### Response > 200 µM

### Prompt Thanks! And `C[S@@+]([O-])c1ccc(N2CCC[C@@H](Nc3cc(N4CCOCC4)ccn3)C2)cc1` ?
### Response > 200 µM
